The following compounds are shown together with reported GI50 values.
# Test system: NCI/ADR-RES ovarian
# protocol.text: NCI tumour cell line growth inhibition, 48 h

[
  {
    "compound": "O=S(=O)(c1cccc2c(I)cccc12)N1CCCNCC1",
    "target": "NCI/ADR-RES ovarian",
    "GI50": "20.2 µM"
  },
  {
    "compound": "COc1ccc(C2=CC(c3ccc(OC)cc3Br)N3C=CSC3=N2)cc1 (stereo unspecified)",
    "target": "NCI/ADR-RES ovarian",
    "GI50": "4.43 µM"
  },
  {
    "compound": "Nc1ncnc2c1c(-c1ccc(Oc3ccccc3)cc1)nn2C[C@@H]1SSC[C@H]1O",
    "target": "NCI/ADR-RES ovarian",
    "GI50": "2.96 µM"
  }
]

Problem: Give the value of GI50 reported for the following: N#Cc1nc2c(S(=O)(=O)c3ccc(Cl)cc3)c(N)n(CCCN3CCOCC3)c2nc1C#N
Solution: 33.2 µM

Problem: Tell us which GI50 value is on record for Cc1ccc(-c2nc3nc(-c4ccccc4)nc(N4CCNCC4)c3o2)cc1
Solution: 0.776 µM

Problem: Give a short answer stating reported GI50 for Cc1nn(-c2ccc(Cl)cc2)c2nc3c(nc12)C(=O)C(=O)c1ccccc1-3 .
Solution: 3.92 µM
